# System: RXRa DBDmut IVT, anti-RXR (DBD mutation: RXRa K156A/R161A, NR concentration 90 nM)
# assayMethodText: PBM binding z-score (relative to random genomic background probes); higher = stronger binding; sequences stand for … in GC…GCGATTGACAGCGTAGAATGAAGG
Kindly return y if reported PBM binding z-score is no lower than 0.5; return n if it is lower.

CAAACTAGGTCACCGGAAGGTCAAATTCCGCATG    y

Incoming: Kindly determine if PBM binding z-score recorded for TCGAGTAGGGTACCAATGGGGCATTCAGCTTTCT is above or exactly 0.5.
Outgoing: n

Incoming: Likewise for ATCGAAAGGTCGAGGAGAGTATAGAGAAAGGGAA ?
Outgoing: y

Incoming: Likewise for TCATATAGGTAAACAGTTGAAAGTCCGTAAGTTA ?
Outgoing: y

Incoming: Likewise for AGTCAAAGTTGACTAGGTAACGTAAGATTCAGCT ?
Outgoing: n

Incoming: Likewise for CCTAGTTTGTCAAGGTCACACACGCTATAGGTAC ?
Outgoing: y
